Test system: COLO 205 colon
Assay: NCI tumour cell line growth inhibition, 48 h
assay.endpoint: TGI

Example entries and their recorded answers appear below.
molecule=CC1=NN(c2ccccc2)C(=O)C1=C1SCCS1 result="> 56.8 µM"
molecule=Cn1nccc1Nc1nccc(-c2cc3c(s2)C(C)(C)N(CCN2CCOCC2)C3=O)n1 result="> 100 µM"
molecule=Cn1ccnc1C(=O)/C=C/c1ccc(C(=O)Nc2ccc(Cl)cc2)cc1 result="> 33.3 µM"
molecule=CS(=O)(=O)NNS(=O)(=O)c1cccc([N+](=O)[O-])c1 result="> 100 µM"
molecule=O=C1CCCCC/C1=C\c1ccc(F)cc1 result="> 100 µM"
molecule=COc1cc(/C=C2\C[C@H]3[C@@H]4CC=C5C[C@@H](O)CC[C@]5(C)[C@H]4CC[C@]3(C)[C@H]2O)cc(OC)c1OC result="42.2 µM"

// map OCC(CN1CCCCC1)(CN1CCCCC1)CN1CCCCC1 to recorded TGI (system: COLO 205 colon) > 100 µM

// map COc1cc(/C=C2/C(=O)N(C(=O)OC(C)C)C(Cc3cc(OC)c(OC)c(C)c3OC)C(=O)N2Cc2ccccc2)c(OC)c(C)c1OC (stereo unspecified) to recorded TGI (system: COLO 205 colon) > 100 µM

// map N#Cc1c2ccc([N+](=O)[O-])cc2c(=O)n2c1sc1ccc(C(F)(F)F)cc12 to recorded TGI (system: COLO 205 colon) > 100 µM

// map Cc1nc2c(n1CCO)C(=O)c1ccccc1C2=O to recorded TGI (system: COLO 205 colon) 41.9 µM

// map CC1C(=O)OC2CC[N+]3(CC(=O)c4ccc(Br)cc4)CC=C(COC(=O)C(C)(O)C1(C)O)C23 (stereo unspecified) to recorded TGI (system: COLO 205 colon) > 375 µM

// map CC(=O)c1cccc(NC(=O)/C(=N\NC(C)(C)C)c2c(O)c3ccccc3oc2=O)c1 to recorded TGI (system: COLO 205 colon) > 100 µM

// map CC1=C(C(=O)Nc2ccc(F)c(Cl)c2)C(c2ccccc2Cl)NC(=S)N1 (stereo unspecified) to recorded TGI (system: COLO 205 colon) > 50 µM

// map Cc1ccc(NC(=O)CCC(CC(=O)C(C)(C)C)=NNC(=O)C(=O)NN)cc1C to recorded TGI (system: COLO 205 colon) > 100 µM

// map Cn1c2ccccc2c(=S)c2ccccc21 to recorded TGI (system: COLO 205 colon) > 100 µM

// map CC(=O)OC1CCN(C(=O)c2ccccc2)CC1CC1(c2cc3ccccc3[nH]2)OCCO1 (stereo unspecified) to recorded TGI (system: COLO 205 colon) > 100 µM

// map CC(=O)Oc1ccc2c(c1)Oc1cc(C(C)=O)ccc1C21OC(=O)c2ccccc21 (stereo unspecified) to recorded TGI (system: COLO 205 colon) > 100 µM

// map COc1cccc(C2c3cc4c(cc3OC(C)(O)C2C)OCO4)c1O (stereo unspecified) to recorded TGI (system: COLO 205 colon) 6.15 µM

// map CC1(c2ccc(F)cc2)CC(c2ccc(F)cc2)=C(C#N)C(=C(C#N)C#N)N1 (stereo unspecified) to recorded TGI (system: COLO 205 colon) 27.9 µM

// map CN(C)CCNC(=O)c1cc2ccccc2c2nc3ccccc3nc12 to recorded TGI (system: COLO 205 colon) > 100 µM

// map COc1c(Cl)c2c(c(OC)c1OC)-c1ccc(OC)c(=O)c(Cl)c1C(NC(C)=O)CC2 (stereo unspecified) to recorded TGI (system: COLO 205 colon) 0.647 µM

----------
Catalogue of TGI values
Test system: T-47D breast
Experiment: NCI tumour cell line growth inhibition, 48 h
// units = µM; emit number, no label

Example entries and their recorded answers appear below.
molecule=COc1ccc2c(c1)C(=O)/C(=C/c1cccc(OCC(=O)Nc3nc4c(s3)CCCC4)c1)O2 assay_endpoint=TGI number=4.34
molecule=Cc1nn(-c2nc3ccccc3s2)c(C)c1Oc1ccccc1O assay_endpoint=TGI number=34.4
molecule=COc1ccc(CCN2C(=O)C=CC2=O)cc1OC assay_endpoint=TGI number=31.9

Then this molecule:
For Cc1cc(N2CCCCC2)nc(N(CCCNc2ccnc3cc(Cl)ccc23)Cc2ccco2)n1 , what is its reported TGI? 4.44

----------
Test system: OVCAR-3 ovarian
Assay: NCI tumour cell line growth inhibition, 48 h
assay.endpoint: TGI (µM)
// units = µM; emit number, no label

Example entries and their recorded answers appear below.
chemical_structure=COc1ccc2nc(-c3cc(-c4cc(OC)c(OC)c(OC)c4)n[nH]3)[nH]c2c1 study_system="OVCAR-3 ovarian" number=6.18
chemical_structure=N#C[S-].[Nd+3].c1cnc2c(c1)ccc1cccnc12.c1cnc2c(c1)ccc1cccnc12.c1cnc2c(c1)ccc1cccnc12 study_system="OVCAR-3 ovarian" number=16.1
chemical_structure=Cc1cc(N2CCCCC2)nc(N(CCCNc2ccnc3cc(Cl)ccc23)Cc2ccco2)n1 study_system="OVCAR-3 ovarian" number=5.01

// map c1ccc(Cn2cc3c(c2-c2ccccc2)CCc2cnoc2-3)cc1 to recorded TGI (system: OVCAR-3 ovarian) 24.7

// map Cc1cc(NC(=S)Nc2ccccc2)c(NC(=S)Nc2ccccc2)cc1C to recorded TGI (system: OVCAR-3 ovarian) 50.9

// map O=C(Nc1ccccc1O)c1cccc(NC2=C(Cl)C(=O)N(Cc3ccccc3)C2=O)c1 to recorded TGI (system: OVCAR-3 ovarian) 7.85

----------
System: MALME-3M melanoma
Experiment: NCI tumour cell line growth inhibition, 48 h
assay.endpoint: TGI

For CCOP(C)(=O)C(Cc1c[nH]c2ccccc12)C(=O)O (stereo not drawn) , what is its reported TGI? > 100 µM

For C/C(CC(=O)Nc1ccc(Cl)c(Cl)c1)=N/NC(=O)C[n+]1ccccc1 , what is its reported TGI? > 100 µM

----------
Catalogue of TGI values
System: SW-620 colon
Experiment: NCI tumour cell line growth inhibition, 48 h

molecule=O=C(O)CNC(=O)CO/N=C1/C(c2c(O)[nH]c3ccccc23)=Nc2ccccc21 result="> 100 µM"
molecule=O=c1/c(=C/c2cccc([N+](=O)[O-])c2)sc2nc3ccccc3n12 result="> 100 µM"
molecule=CC(=O)c1cccc(NC(=O)/C(=N\NC(C)(C)C)c2c(O)c3ccccc3oc2=O)c1 result="> 100 µM"
molecule="CCCCCCCC1(N=[N+]=[N-])C(=O)c2ccccc2N(C)C1=O (stereo not given)" result="> 100 µM"
molecule="CCN1CCC(O)(c2ccc(C)cc2)C(C(=O)c2ccc(C)cc2)C1 (stereo not given)" result="31.8 µM"
molecule=CN1C(=O)c2ccccc2NC(=O)c2cnn(C)c21 result="> 100 µM"

Then this molecule:
For COc1ccc(C[C@@H]2Cc3cc(OC)c(OC)cc3CN2C)cc1 , what is its reported TGI? > 100 µM

----------
System: UACC-62 melanoma
Test: NCI tumour cell line growth inhibition, 48 h; in the data active = GI50 below about 0.43 µM; inactive = the rest
Form entry, call: pick from active, inactive

compound=O=C1NN(c2ccc(C(=O)O)cc2)C(=O)/C1=C\c1ccc([N+](=O)[O-])o1 assigned_class=inactive
compound=C[n+]1c(/C=C\c2ccc(Cl)cc2)ccc2ccccc21 assigned_class=inactive
compound="O=C1CC(c2ccc(N3CCOCC3)cc2)(c2ccsc2)NC(=O)C1Sc1ccccc1Cl (stereo not given)" assigned_class=inactive
compound=O=c1cc(-c2cccc(C(F)(F)F)c2)[nH]c2cc3c(cc12)OCO3 assigned_class=active
compound=Oc1ccc(-c2nnc3sc(-c4ccc(F)c(Oc5ccccc5)c4)nn23)cc1 assigned_class=inactive

Recorded test call requested for Cn1cc(C2=C(c3cccc4ccccc34)C(=O)NC2=O)c2ccccc21 inactive

Recorded test call requested for C[C@@H]1CN(C(=O)c2ccc(NC(=O)c3cc(O[C@H](C)c4c(Cl)ccc(F)c4Cl)c(N)nn3)cc2)C[C@H](C)N1 inactive

Recorded test call requested for N#C/C(=C\c1ccc(-c2ccc(Cl)cc2)o1)C(=O)Nc1ncc(Cc2ccc(Cl)cc2)s1 inactive

Recorded test call requested for COc1ccccc1OCC(=O)Nc1sc2c(c1C(N)=O)CCC2 inactive

Recorded test call requested for COc1ccc(-c2[nH]c3ccccc3c2C=C(C#N)C#N)cc1 active

----------
Test system: KM12 colon
Test: NCI tumour cell line growth inhibition, 48 h
assay.endpoint: TGI

Example entries and their recorded answers appear below.
molecule="C/C(=N\\NS(=O)(=O)c1ccc(C)cc1)C(CN1CCOCC1)C(c1ccccc1)c1c(O)c2ccccc2oc1=O (stereo not given)" assay_endpoint=TGI result="> 100 µM"
molecule=Cc1cc2c(cc1Cl)SC1=CC(=O)N(c3ccccc3)C1=NS2(=O)=O assay_endpoint=TGI result="67.3 µM"
molecule="CC1CC2(C)ON=C(c3ccccc3)N2c2ccccc2S1 (stereo not given)" assay_endpoint=TGI result="42.5 µM"
molecule=C/C(CC(=O)Nc1ccc(Cl)c(Cl)c1)=N/NC(=O)C[n+]1ccccc1 assay_endpoint=TGI result="> 100 µM"
molecule=N#C[S-].[Nd+3].c1cnc2c(c1)ccc1cccnc12.c1cnc2c(c1)ccc1cccnc12.c1cnc2c(c1)ccc1cccnc12 assay_endpoint=TGI result="22.6 µM"

For C1=Cc2ccccc2Nc2ccccc21 , what is its reported TGI? > 100 µM

For CC(=O)Oc1ccc2c(c1)Oc1cc(C(C)=O)ccc1C21OC(=O)c2ccccc21 (stereo not given) , what is its reported TGI? > 100 µM

For CCCN(CCCCC(NC(C)=O)C(=O)NCc1ccccc1)C(=O)N(C)N=O (stereo not given) , what is its reported TGI? > 100 µM

For COc1cc(OC)cc(Oc2nc3ccccc3nc2C(=O)O)c1 , what is its reported TGI? > 100 µM

For Cc1ccc(Cl)c2c(=O)c3ccc([N+](=O)[O-])cc3sc12 , what is its reported TGI? > 100 µM
